Test: Biological distribution of L-[18F]FET in F98 glioma-bearing Fischer 344 rat
Conditions: in vivo, iv, Liver, 90 min after injection via tail vein, read-out: accumulated radioactivity
property: tissue uptake at 1.5 h (%ID/g)
Write down the numeric answer in %ID/g and omit the unit.

Prompt: Look at this compound and give its reported tissue uptake at 1.5 h. N[C@@H](Cc1ccc(OCC[18F])cc1)C(=O)O [L-[^18F]FET, O-(2-[^18F]fluoroethyl)-L-Tyrosine]
Completion: 0.49

----------
Assay: Biological distribution of L-[18F]FET in F98 glioma-bearing Fischer 344 rat
Details: in vivo, iv, Lung, 30 min after injection via tail vein, read-out: accumulated radioactivity
property: tissue uptake at 0.5 h (%ID/g)
Write down the numeric answer in %ID/g and omit the unit.

Prompt: Look at this compound and give its reported tissue uptake at 0.5 h. N[C@@H](Cc1ccc(OCC[18F])cc1)C(=O)O [L-[^18F]FET, O-(2-[^18F]fluoroethyl)-L-Tyrosine]
Completion: 0.43

----------
Experiment: Biological distribution of L-[18F]FET in F98 glioma-bearing Fischer 344 rat
Conditions: in vivo, iv, Lung, 120 min after injection via tail vein, read-out: accumulated radioactivity
property: tissue uptake at 2 h

Prompt: Look at this compound and give its reported tissue uptake at 2 h. N[C@@H](Cc1ccc(OCC[18F])cc1)C(=O)O [L-[^18F]FET, O-(2-[^18F]fluoroethyl)-L-Tyrosine]
Completion: 0.4 %ID/g

----------
Assay: Biological distribution of L-[18F]FET in F98 glioma-bearing Fischer 344 rat
Details: in vivo, iv, Right brain, 30 min after injection via tail vein, read-out: accumulated radioactivity
Text: • (1) Total of twenty Fischer 344 male rats will be assessed in vivo for L-[^18F]FET biological distribution. […] Alone skull base insert scissors deeply to the front edge of cranial cavity in order to remove left-brain, right-brain and brain tumor. • (7) Weight all organ samples; measure radioactivity with γ-counter and convert to %ID/g (% injection dose/g organ) of each organ for estimate the biological distribution of L-[^18F]FET. […]
property: tissue uptake at 0.5 h (%ID/g)
Write down the numeric answer in %ID/g and omit the unit.

Prompt: Look at this compound and give its reported tissue uptake at 0.5 h. N[C@@H](Cc1ccc(OCC[18F])cc1)C(=O)O [L-[^18F]FET, O-(2-[^18F]fluoroethyl)-L-Tyrosine]
Completion: 0.21

----------
Assay: Biological distribution of L-[18F]FET in F98 glioma-bearing Fischer 344 rat
Details: in vivo, iv, Lung, 15 min after injection via tail vein, read-out: accumulated radioactivity
property: tissue uptake at 0.25 h

Prompt: Look at this compound and give its reported tissue uptake at 0.25 h. N[C@@H](Cc1ccc(OCC[18F])cc1)C(=O)O [L-[^18F]FET, O-(2-[^18F]fluoroethyl)-L-Tyrosine]
Completion: 0.32 %ID/g

----------
Assay: Biological distribution of L-[18F]FET in F98 glioma-bearing Fischer 344 rat
Details: in vivo, iv, Liver, 120 min after injection via tail vein, read-out: accumulated radioactivity
property: tissue uptake at 2 h
The answer consists of two parts: a number and, after it, its unit.

Prompt: Look at this compound and give its reported tissue uptake at 2 h. N[C@@H](Cc1ccc(OCC[18F])cc1)C(=O)O [L-[^18F]FET, O-(2-[^18F]fluoroethyl)-L-Tyrosine]
Completion: 0.41 %ID/g

----------
Test: Biological distribution of L-[18F]FET in F98 glioma-bearing Fischer 344 rat
Details: in vivo, iv, maximum accumulation in normal brain tissue
property: tissue uptake at 1.5 h (%ID/g)
Write down the numeric answer in %ID/g and omit the unit.

Prompt: Look at this compound and give its reported tissue uptake at 1.5 h. N[C@@H](Cc1ccc(OCC[18F])cc1)C(=O)O [L-[^18F]FET, O-(2-[^18F]fluoroethyl)-L-Tyrosine]
Completion: 0.48

----------
Experiment: Biological distribution of L-[18F]FET in F98 glioma-bearing Fischer 344 rat
Details: in vivo, iv, Liver, 30 min after injection via tail vein, read-out: accumulated radioactivity
property: tissue uptake at 0.5 h (%ID/g)
Write down the numeric answer in %ID/g and omit the unit.

Prompt: Look at this compound and give its reported tissue uptake at 0.5 h. N[C@@H](Cc1ccc(OCC[18F])cc1)C(=O)O [L-[^18F]FET, O-(2-[^18F]fluoroethyl)-L-Tyrosine]
Completion: 0.37
